biological target: Sgk2 (Homo sapiens, UniProt Q9HBY8); test: Enzyme based assay for SGK2 (biotinylated Akt Substrates-2 peptide, Eu3+ Cryptate/XL665 detection); format: biochemical; settings: 1 mM ATP; read-out: Sgk2 (1 mM ATP)
Sequence (Q9HBY8 whole entry): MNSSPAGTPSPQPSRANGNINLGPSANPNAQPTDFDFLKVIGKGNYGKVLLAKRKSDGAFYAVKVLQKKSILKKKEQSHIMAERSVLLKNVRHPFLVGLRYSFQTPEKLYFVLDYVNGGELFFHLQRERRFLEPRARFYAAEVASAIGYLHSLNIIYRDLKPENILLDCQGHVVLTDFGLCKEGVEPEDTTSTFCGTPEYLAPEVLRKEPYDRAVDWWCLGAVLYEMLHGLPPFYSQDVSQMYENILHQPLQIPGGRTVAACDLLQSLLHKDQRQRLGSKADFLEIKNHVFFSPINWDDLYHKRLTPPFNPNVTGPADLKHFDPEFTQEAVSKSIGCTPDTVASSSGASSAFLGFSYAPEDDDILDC
Classes (IC50): band A = under 9 nM, band B = from 9 nM up to 20 nM, band C = 20 nM and over

>  <molecule>
COc1ccc(F)c(S(=O)(=O)Nc2ccc(-c3cc4c5c(n[nH]c5c3)NC(=O)CN4)cc2)c1

>  <class>
band B

$$$$
>  <molecule>
COc1ccc(F)c(S(=O)(=O)Nc2ccc(-c3cc(OC(C)C)c4c(N)n[nH]c4c3)cc2)c1

>  <class>
band C

$$$$
>  <molecule>
COc1ccc(F)c(S(=O)(=O)Nc2ccc(-c3cc4[nH]ncc4c(OCC4CNCCO4)n3)cc2)c1 (stereo not shown) [drawing 99]

>  <class>
band A

$$$$
>  <molecule>
COc1ccc(F)c(S(=O)(=O)Nc2ccc(-c3ccc4c(N)n[nH]c4c3)cc2)c1

>  <class>
band B

$$$$
>  <molecule>
O=S(=O)(Nc1ccc(-c2ccc3cn[nH]c3n2)cc1)c1cc(Cl)ccc1F

>  <class>
band C

$$$$
>  <molecule>
COc1ccc(F)c(S(=O)(=O)Nc2ccc(-c3cc(OC)c4c(N)n[nH]c4c3)cn2)c1

>  <class>
band C

$$$$
>  <molecule>
COc1ccc(F)c(S(=O)(=O)Nc2ccc(-c3cnc4cn[nH]c4c3)cc2)c1

>  <class>
band C

$$$$
>  <molecule>
Nc1n[nH]c2cc(-c3ccc(NS(=O)(=O)c4cccc(Cl)c4Cl)cn3)ccc12

>  <class>
band B

$$$$
>  <molecule>
COc1ccc(F)c(S(=O)(=O)Nc2ccc(-c3cc(OC4COC4)c4c(N)n[nH]c4c3)cc2)c1

>  <class>
band A

$$$$
>  <molecule>
CCOc1cc(-c2ccc(NS(=O)(=O)c3cc(OC)ccc3F)cc2)nc2[nH]nc(N)c12

>  <class>
band B

$$$$
>  <molecule>
COc1ccc(F)c(S(=O)(=O)Nc2ccc(-c3cc(NCC4CNCCO4)c4cn[nH]c4c3)cc2)c1 (stereo not shown)

>  <class>
band A

$$$$
>  <molecule>
COc1ccc(F)c(S(=O)(=O)Nc2ccc(-c3cc(O[C@@H]4CCOC4)c4c(N)n[nH]c4c3)cc2)c1

>  <class>
band B

$$$$
